Values compiled from the supplement of paper PMC10567573.

B1: TNXB (parent)
chain: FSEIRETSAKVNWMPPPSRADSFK

- Variants of: B1
- assay-notes: protein stability index of a GFP-peptide fusion (GPS, HEK-293T) (PSI 1-6); higher = more stable;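 also: lentivirally expressed fusions sorted by FACS into six bins by GFP to DsRed ratio, PSI derived from sequencing read proportions per bin multiplied by bin number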
- run-conditions: c terminus: a fixed tail appended
readout-type: protein stability index
Provide a numeric answer; units are not to be included.

Example results:
S8G	3.15
R5Q	4.15
A20N	3.27
P17M	2.97
R19C	3.33
S2H	2.21
E6M	2.34
E6Y	2.87

Okay, now this variant:
The measured protein stability index associated with M14I reads 3.11
